measured_target: furin, P09958;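 also: purified furin at 1:10 enzyme:substrate in 50 mM HEPES pH 7.5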
Sequence (P09958 whole entry): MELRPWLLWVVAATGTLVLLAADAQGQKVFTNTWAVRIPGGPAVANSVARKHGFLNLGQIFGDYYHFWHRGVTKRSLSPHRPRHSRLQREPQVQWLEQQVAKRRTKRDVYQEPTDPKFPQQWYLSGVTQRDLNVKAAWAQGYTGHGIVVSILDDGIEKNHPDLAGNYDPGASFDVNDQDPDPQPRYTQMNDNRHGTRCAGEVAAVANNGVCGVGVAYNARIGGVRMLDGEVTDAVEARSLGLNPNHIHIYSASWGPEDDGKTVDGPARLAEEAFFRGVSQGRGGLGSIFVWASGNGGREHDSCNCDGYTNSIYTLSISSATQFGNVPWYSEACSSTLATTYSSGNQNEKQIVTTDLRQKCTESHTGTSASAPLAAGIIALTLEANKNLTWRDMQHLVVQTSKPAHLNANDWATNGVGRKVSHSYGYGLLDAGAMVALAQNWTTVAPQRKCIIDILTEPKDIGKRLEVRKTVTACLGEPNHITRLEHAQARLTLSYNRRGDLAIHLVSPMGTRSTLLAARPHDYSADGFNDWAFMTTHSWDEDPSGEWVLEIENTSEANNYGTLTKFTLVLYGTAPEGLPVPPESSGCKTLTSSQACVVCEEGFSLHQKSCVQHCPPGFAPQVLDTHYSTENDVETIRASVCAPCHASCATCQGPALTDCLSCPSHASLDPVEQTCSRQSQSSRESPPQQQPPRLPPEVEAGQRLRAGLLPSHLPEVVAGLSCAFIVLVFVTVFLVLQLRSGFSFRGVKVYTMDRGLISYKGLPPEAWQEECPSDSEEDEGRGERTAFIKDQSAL
test: furin cleavage Z-score vs untreated control; higher = more cleavage, active = 3.5 or more, inactive = 1 or less, 8 variable residues between constant flanks
conditions_used: 30 min
The other results are listed elsewhere or left out. The true hit rate is not given.
Labels: active, inactive

[
  {
    "polymer_sequence": "CARRRRQAERAGNASASA [FS-2793]",
    "cat": "active"
  },
  {
    "polymer_sequence": "CAEVVTSMWVAGNASASA [HC2206]",
    "cat": "inactive"
  },
  {
    "polymer_sequence": "CAYDAGCAWYAGNASASA [HC921]",
    "cat": "inactive"
  },
  {
    "polymer_sequence": "CADDEVVTSTAGNASASA [HC2291]",
    "cat": "inactive"
  },
  {
    "polymer_sequence": "CASTWCSAHLAGNASASA [HC2508]",
    "cat": "inactive"
  },
  {
    "polymer_sequence": "CARRKRLPEMAGNASASA [FS-1778]",
    "cat": "inactive"
  },
  {
    "polymer_sequence": "CAELITSCSSAGNASASA [HC1551]",
    "cat": "inactive"
  },
  {
    "polymer_sequence": "CARRRRKKARAGNASASA [FS-2790]",
    "cat": "inactive"
  },
  {
    "polymer_sequence": "CACHCGAEITAGNASASA [HC1175]",
    "cat": "inactive"
  },
  {
    "polymer_sequence": "CAETTTPCSGAGNASASA [HC1978]",
    "cat": "inactive"
  },
  {
    "polymer_sequence": "CANHVSPTHYAGNASASA [HC1124]",
    "cat": "inactive"
  },
  {
    "polymer_sequence": "CAPTTRVRRRAGNASASA [FS-702]",
    "cat": "active"
  },
  {
    "polymer_sequence": "CAWAKHMWNFAGNASASA [HC1041]",
    "cat": "inactive"
  },
  {
    "polymer_sequence": "CARQRRVRRRAGNASASA [FS-1160]",
    "cat": "active"
  },
  {
    "polymer_sequence": "CARRKREVQMAGNASASA [FS-2779]",
    "cat": "active"
  },
  {
    "polymer_sequence": "CASRHRVTRYAGNASASA [FS-1489]",
    "cat": "active"
  },
  {
    "polymer_sequence": "CAREKRQAKHAGNASASA [FS-2255]",
    "cat": "active"
  },
  {
    "polymer_sequence": "CACVVTSTWVAGNASASA [HC2160]",
    "cat": "inactive"
  },
  {
    "polymer_sequence": "CAGPGRVRRRAGNASASA [FS-28]",
    "cat": "active"
  },
  {
    "polymer_sequence": "CADAEVVTSTAGNASASA [HC2283]",
    "cat": "inactive"
  },
  {
    "polymer_sequence": "CAANVRRKRYAGNASASA [FS-643]",
    "cat": "active"
  },
  {
    "polymer_sequence": "CALSKRSLRDAGNASASA [FS-1373]",
    "cat": "active"
  },
  {
    "polymer_sequence": "CARRRRSSSTAGNASASA [FS-3068]",
    "cat": "active"
  },
  {
    "polymer_sequence": "CAILAGYGAGAGNASASA [HC1086]",
    "cat": "inactive"
  }
]

Values were extracted from the supplement of paper PMC3545927.
